The values you see were collected from patent US20240059671A1.

Target: TYK2 (Homo sapiens)
Assay: TYK2 protein degradation in MOLT-4 cells by immunoblotting
Format: cell-based
Set-up: endogenous in cells; host or cells: MOLT-4
Conditions: MOLT-4 cells, 5 μM, 24 hours
measure: TYK2 Degradation (5 μM)

Reference set (2 entries):
compound="CNC(=O)c1nnc(NC(=O)CNC(=O)CCOCCOCCOCCOCCC(=O)N[C@H](C(=O)N2C[C@H](O)C[C@H]2C(=O)NCc2ccc(-c3scnc3C)cc2)C(C)(C)C)cc1Nc1cccc(-c2ncn(C)n2)c1OC [CPD-031]" system="TYK2 (Homo sapiens)" measured=≤20%
compound="CNC(=O)c1nnc(NC(=O)CNC(=O)CCNc2cccc3c2C(=O)N(C2CCC(=O)NC2=O)C3=O)cc1Nc1cccc(-c2ncn(C)n2)c1OC (stereo not drawn) [CPD-043]" system="TYK2 (Homo sapiens)" measured=≤20%

Provide TYK2 Degradation (5 μM) value for the following compound: CNC(=O)c1nnc(NC(=O)CNC(=O)CCOCCOCCNc2cccc3c2C(=O)N(C2CCC(=O)NC2=O)C3=O)cc1Nc1cccc(-c2ncn(C)n2)c1OC (stereo not drawn) [CPD-050]
≤20%

###

Molecular target: TYK2 (Homo sapiens, UniProt P29597)
Sequence (P29597 whole entry): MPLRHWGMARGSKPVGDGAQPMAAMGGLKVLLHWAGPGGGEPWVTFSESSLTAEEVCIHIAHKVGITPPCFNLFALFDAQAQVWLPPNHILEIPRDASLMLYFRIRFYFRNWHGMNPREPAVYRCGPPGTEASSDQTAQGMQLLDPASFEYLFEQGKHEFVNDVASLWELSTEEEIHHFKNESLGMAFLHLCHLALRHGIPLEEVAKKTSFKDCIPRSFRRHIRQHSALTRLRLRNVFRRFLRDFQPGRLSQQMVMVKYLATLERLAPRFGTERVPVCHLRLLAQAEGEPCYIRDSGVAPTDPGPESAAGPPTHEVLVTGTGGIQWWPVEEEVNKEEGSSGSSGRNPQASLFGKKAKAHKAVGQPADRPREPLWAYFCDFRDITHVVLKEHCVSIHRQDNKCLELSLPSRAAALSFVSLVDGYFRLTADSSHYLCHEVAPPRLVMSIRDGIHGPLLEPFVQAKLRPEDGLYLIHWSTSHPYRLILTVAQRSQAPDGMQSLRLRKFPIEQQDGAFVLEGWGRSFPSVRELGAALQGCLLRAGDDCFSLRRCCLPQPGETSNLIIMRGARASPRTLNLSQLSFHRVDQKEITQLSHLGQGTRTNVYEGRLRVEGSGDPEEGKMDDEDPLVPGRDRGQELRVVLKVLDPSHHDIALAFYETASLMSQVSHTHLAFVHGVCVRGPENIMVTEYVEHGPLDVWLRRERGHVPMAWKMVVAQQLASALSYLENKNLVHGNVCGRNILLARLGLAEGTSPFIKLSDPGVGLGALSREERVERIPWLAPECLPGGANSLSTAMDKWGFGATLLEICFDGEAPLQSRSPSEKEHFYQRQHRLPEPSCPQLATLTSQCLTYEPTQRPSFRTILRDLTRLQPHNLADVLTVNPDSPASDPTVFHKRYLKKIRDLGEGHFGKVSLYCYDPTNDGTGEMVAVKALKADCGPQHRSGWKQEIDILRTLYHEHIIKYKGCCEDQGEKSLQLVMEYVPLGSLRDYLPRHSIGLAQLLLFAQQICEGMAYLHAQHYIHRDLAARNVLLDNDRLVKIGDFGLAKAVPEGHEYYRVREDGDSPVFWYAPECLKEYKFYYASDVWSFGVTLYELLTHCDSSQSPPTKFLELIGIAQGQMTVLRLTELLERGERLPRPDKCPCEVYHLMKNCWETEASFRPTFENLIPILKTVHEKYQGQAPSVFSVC
Assay: TYK2 protein degradation in MOLT-4 cells by immunoblotting
Format: cell-based
Design: endogenous in cells; host or cells: MOLT-4
Conditions: MOLT-4 cells, 0.5 μM, 24 hours
measure: TYK2 Degradation (0.5 μM)

Note TYK2 Degradation (0.5 μM) for the compound shown: CNC(=O)c1nnc(NC(=O)C2CC2)cc1Nc1cccc(-c2ncn(CCNC(=O)COCCOCC(=O)N[C@H](C(=O)N3C[C@H](O)C[C@H]3C(=O)NCc3ccc(-c4scnc4C)cc3)C(C)(C)C)n2)c1OC
≤20%

Write down TYK2 Degradation (0.5 μM) measured for item CNC(=O)c1nnc(NC(=O)C2CC2)cc1Nc1cccc(-c2ncn(CCNC(=O)CCOCCOCCOCCOCCOCCNc3cccc4c3C(=O)N(C3CCC(=O)NC3=O)C4=O)n2)c1OC (stereo not drawn)
≤20%

Give the reported TYK2 Degradation (0.5 μM) for this compound. CNC(=O)c1nnc(NC(=O)CNC(=O)CCOCCOCCC(=O)N[C@H](C(=O)N2C[C@H](O)C[C@H]2C(=O)NCc2ccc(-c3scnc3C)cc2)C(C)(C)C)cc1Nc1cccc(-c2ncn(C)n2)c1OC
≤20%

###

This listing pairs compounds with measured TYK2 Degradation (5 μM).
Target: TYK2 (Homo sapiens, UniProt P29597)
Experiment: TYK2 protein degradation in MOLT-4 cells by immunoblotting
Assay type: cell-based
Set-up: endogenous in cells; host or cells: MOLT-4
Conditions: MOLT-4 cells, 5 μM, 24 hours

compound=CNC(=O)c1nnc(NC(=O)C2CC2)cc1Nc1cccc(-c2ncn(CCNC(=O)COCCOCCOCC(=O)N[C@H](C(=O)N3C[C@H](O)C[C@H]3C(=O)NCc3ccc(-c4scnc4C)cc3)C(C)(C)C)n2)c1OC measured=≤20%
compound="CNC(=O)c1nnc(NC(=O)C2CC2)cc1Nc1cccc(-c2ncn(CCNC(=O)CCOCCOCCOCCOCCOCCNc3ccc4c(c3)C(=O)N(C3CCC(=O)NC3=O)C4=O)n2)c1OC (centres unmarked)" measured=≤20%

Recall and state the measured TYK2 Degradation (5 μM) for CNC(=O)c1nnc(NC(=O)CNC(=O)CCCCCCCC(=O)N[C@H](C(=O)N2C[C@H](O)C[C@H]2C(=O)NCc2ccc(-c3scnc3C)cc2)C(C)(C)C)cc1Nc1cccc(-c2ncn(C)n2)c1OC .
90%

State its TYK2 Degradation (5 μM): CNC(=O)c1nnc(NC(=O)CNC(=O)CCC(=O)N[C@H](C(=O)N2C[C@H](O)C[C@H]2C(=O)NCc2ccc(-c3scnc3C)cc2)C(C)(C)C)cc1Nc1cccc(-c2ncn(C)n2)c1OC
≤20%

Dear colleague, please send me the reported TYK2 Degradation (5 μM) for CNC(=O)c1nnc(NC(=O)CNC(=O)CCOCCOCCC(=O)N[C@H](C(=O)N2C[C@H](O)C[C@H]2C(=O)NCc2ccc(-c3scnc3C)cc2)C(C)(C)C)cc1Nc1cccc(-c2ncn(C)n2)c1OC when you can.
≤20%

###

Recorded TYK2 Degradation (0.5 μM) by entry
Biological target: TYK2 (Homo sapiens, UniProt P29597)
Test: TYK2 protein degradation in MOLT-4 cells by immunoblotting
Format: cell-based
Parameters: endogenous in cells; host or cells: MOLT-4
Details: MOLT-4 cells, 0.5 μM, 24 hours

Consider the worked cases shown below.
compound="CNC(=O)c1nnc(NC(=O)CNC(=O)CCCCCCCNc2ccc3c(c2)C(=O)N(C2CCC(=O)NC2=O)C3=O)cc1Nc1cccc(-c2ncn(C)n2)c1OC (stereo not drawn)" measure="TYK2 Degradation (0.5 μM)" measured=≤20%
compound="CNC(=O)c1nnc(NC(=O)C2CC2)cc1Nc1cccc(-c2ncn(CCNC(=O)CCCNc3ccc4c(c3)C(=O)N(C3CCC(=O)NC3=O)C4=O)n2)c1OC (stereo not drawn)" measure="TYK2 Degradation (0.5 μM)" measured=≤20%
compound="CNC(=O)c1nnc(NC(=O)C2CC2)cc1Nc1cccc(-c2ncn(CCNC(=O)CCCNc3cccc4c3C(=O)N(C3CCC(=O)NC3=O)C4=O)n2)c1OC (stereo not drawn)" measure="TYK2 Degradation (0.5 μM)" measured=≤20%
compound="CNC(=O)c1nnc(NC(=O)CNC(=O)CCCCNc2cccc3c2C(=O)N(C2CCC(=O)NC2=O)C3=O)cc1Nc1cccc(-c2ncn(C)n2)c1OC (stereo not drawn)" measure="TYK2 Degradation (0.5 μM)" measured=40%
compound=CNC(=O)c1nnc(NC(=O)CNC(=O)COCCOCCOCC(=O)N[C@H](C(=O)N2C[C@H](O)C[C@H]2C(=O)NCc2ccc(-c3scnc3C)cc2)C(C)(C)C)cc1Nc1cccc(-c2ncn(C)n2)c1OC measure="TYK2 Degradation (0.5 μM)" measured=≤20%
compound=CNC(=O)c1nnc(NC(=O)CNC(=O)CCCCCCC(=O)N[C@H](C(=O)N2C[C@H](O)C[C@H]2C(=O)NCc2ccc(-c3scnc3C)cc2)C(C)(C)C)cc1Nc1cccc(-c2ncn(C)n2)c1OC measure="TYK2 Degradation (0.5 μM)" measured=50%

Fetch value of TYK2 Degradation (0.5 μM) on TYK2 (Homo sapiens, UniProt P29597) for CNC(=O)c1nnc(NC(=O)CNC(=O)CCCC(=O)N[C@H](C(=O)N2C[C@H](O)C[C@H]2C(=O)NCc2ccc(-c3scnc3C)cc2)C(C)(C)C)cc1Nc1cccc(-c2ncn(C)n2)c1OC .
≤20%

Please indicate recorded TYK2 Degradation (0.5 μM) of CNC(=O)c1nnc(NC(=O)C2CC2)cc1Nc1cccc(-c2ncn(CCNC(=O)CCCCNc3cccc4c3C(=O)N(C3CCC(=O)NC3=O)C4=O)n2)c1OC (stereo not drawn) measured with TYK2 (Homo sapiens, UniProt P29597).
≤20%

Using TYK2 (Homo sapiens, UniProt P29597) as the test system, report measured TYK2 Degradation (0.5 μM) of CNC(=O)c1nnc(NC(=O)C2CC2)cc1Nc1cccc(-c2ncn(CCNC(=O)CNc3ccc4c(c3)C(=O)N(C3CCC(=O)NC3=O)C4=O)n2)c1OC (stereo not drawn) .
≤20%

Print TYK2 (Homo sapiens, UniProt P29597) TYK2 Degradation (0.5 μM) for CNC(=O)c1nnc(NC(=O)CNC(=O)CCOCCOCCOCCC(=O)N[C@H](C(=O)N2C[C@H](O)C[C@H]2C(=O)NCc2ccc(-c3scnc3C)cc2)C(C)(C)C)cc1Nc1cccc(-c2ncn(C)n2)c1OC .
≤20%

Report TYK2 Degradation (0.5 μM) on TYK2 (Homo sapiens, UniProt P29597) for this entry: CNC(=O)c1nnc(NC(=O)C2CC2)cc1Nc1cccc(-c2ncn(CCNC(=O)CCOCCOCCNc3cccc4c3C(=O)N(C3CCC(=O)NC3=O)C4=O)n2)c1OC (stereo not drawn)
≤20%

Give TYK2 Degradation (0.5 μM) only, for CNC(=O)c1nnc(NC(=O)CNC(=O)CCC(=O)N[C@H](C(=O)N2C[C@H](O)C[C@H]2C(=O)NCc2ccc(-c3scnc3C)cc2)C(C)(C)C)cc1Nc1cccc(-c2ncn(C)n2)c1OC , using TYK2 (Homo sapiens, UniProt P29597) data.
≤20%

###

Listed here are compounds together with their documented TYK2 Degradation (5 μM).
Molecular target: TYK2 (Homo sapiens)
Assay: TYK2 protein degradation in MOLT-4 cells by immunoblotting
Type: cell-based
Set-up: endogenous in cells; host or cells: MOLT-4
Conditions: MOLT-4 cells, 5 μM, 24 hours
Experimental: MOLT-4 cells were treated with compounds at 0.5 and 5 μM concentrations for 24 hours. MOLT-4 cells were treated with CPD-038, CPD-039, and CPD-040 at 0.04, 0.2, 1, and 5 μM concentrations for 24 hours. […] Cultured cells were washed with cold PBS once and lysed in cold RIPA buffer supplemented with protease inhibitors and phosphatase inhibitors (Beyotime Biotechnology). […] Total protein concentrations in the lysates were determined by BCA assays (Beyotime Biotechnology). […]

compound="CNC(=O)c1nnc(NC(=O)CNC(=O)CCOCCNc2cccc3c2C(=O)N(C2CCC(=O)NC2=O)C3=O)cc1Nc1cccc(-c2ncn(C)n2)c1OC (stereo not drawn) [CPD-049]" measure="TYK2 Degradation (5 μM)" measured=≤20%
compound="CNC(=O)c1nnc(NC(=O)CNC(=O)CCOCCOCCOCCC(=O)N[C@H](C(=O)N2C[C@H](O)C[C@H]2C(=O)NCc2ccc(-c3scnc3C)cc2)C(C)(C)C)cc1Nc1cccc(-c2ncn(C)n2)c1OC [CPD-030]" measure="TYK2 Degradation (5 μM)" measured=≤20%

Let us move to another entry and its TYK2 Degradation (5 μM).
Please report TYK2 Degradation (5 μM) with TYK2 (Homo sapiens) for item CNC(=O)c1nnc(NC(=O)CNC(=O)CCOCCOCCNc2ccc3c(c2)C(=O)N(C2CCC(=O)NC2=O)C3=O)cc1Nc1cccc(-c2ncn(C)n2)c1OC (stereo not drawn) [CPD-062] .
≤20%
